Tested on: E. faecalis ATCC29212
assay_protocol: microbe, parasite or virus in culture
measurement_conditions: ATCC29212
Square brackets hold non-standard residues; d marks the D form. Peptide text beside a SMILES is read from it. Nspe = C[C@H](NCC(=O)O)c1ccccc1; Nphe = O=C(O)CNCc1ccccc1; Nlys = NCCCCNCC(=O)O
# MIC values compiled below
Numeric only. Scale: µg/mL

• C[C@@H](c1ccccc1)N(CC(N)=O)C(=O)CN(Cc1ccccc1)C(=O)CN(CCCCN)C(=O)CN(C(=O)CN(Cc1ccccc1)C(=O)CN(CCCCN)C(=O)CN(C(=O)CN(Cc1ccccc1)C(=O)CN(CCCCN)C(=O)CN(C(=O)CN(Cc1ccccc1)C(=O)CNCCCCN)[C@@H](C)c1ccccc1)[C@@H](C)c1ccccc1)[C@@H](C)c1ccccc1 [1-Npm2,5,8,11, H-(NLys-Npm-Nspe)4-NH2] (H-[Nlys][Nphe][Nspe][Nlys][Nphe][Nspe][Nlys][Nphe][Nspe][Nlys][Nphe][Nspe]-NH2) = 4

Give the measured MIC of C[C@@H](c1ccccc1)N(CC(N)=O)C(=O)CN(C(=O)CN(CCCCN)C(=O)CN(C(=O)CN(C(=O)CN(CCCCN)C(=O)[C@@H]1CCCN1C(=O)CN(C(=O)CN(CCCCN)C(=O)CN(C(=O)CN(C(=O)CNCCCCN)[C@@H](C)c1ccccc1)[C@@H](C)c1ccccc1)[C@@H](C)c1ccccc1)[C@@H](C)c1ccccc1)[C@@H](C)c1ccccc1)[C@@H](C)c1ccccc1 [Peptoid 1-Pro6] (H-[Nlys][Nspe][Nspe][Nlys][Nspe]P[Nlys][Nspe][Nspe][Nlys][Nspe][Nspe]-NH2) .
8
